The measurements presented in this section are drawn from patent US20090081197A1.

- experimental_system: T1, human melanocortin 4 receptor (human, UniProt P32245 1-332)
- T1 construct: whole, on cells; cAMP assays used whole cells; also called hMC4-R; MC4-R
- T1 sequence (P32245 whole entry): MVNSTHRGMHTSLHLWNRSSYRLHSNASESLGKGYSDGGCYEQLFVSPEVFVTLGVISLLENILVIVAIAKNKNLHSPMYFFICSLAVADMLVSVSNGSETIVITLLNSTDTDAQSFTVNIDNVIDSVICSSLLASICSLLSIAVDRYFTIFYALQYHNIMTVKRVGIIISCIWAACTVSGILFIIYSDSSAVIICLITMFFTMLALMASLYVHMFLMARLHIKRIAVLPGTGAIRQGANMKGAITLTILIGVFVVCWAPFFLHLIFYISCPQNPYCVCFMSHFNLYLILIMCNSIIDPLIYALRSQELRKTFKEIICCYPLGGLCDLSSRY
- test_method_notes: radioligand competition, [I125]-NDP-α-MSH, hMC4-R membranes
Positions of bridges follow the written chain, without caps; N, C: chain ends. Non-standard residues stand in square brackets, D forms with d. 1Nal = N[C@@H](Cc1cccc2ccccc12)C(=O)O; Nle = CCCC[C@H](N)C(=O)O
measured_property: Ki (nM)
# unit: nM | format: bare number

Ki measured on Ac-[Nle]DW[dF]R[1Nal]K-NMe2 (lactam 2-7, also called Compound No. 36) [Ac-Nle-cyclo(-Asp-Trp-D-Phe-Arg-Nal 1-Lys)-N(CH3)2] = 38
